# subject_of_test: Protein-glutamine gamma-glutamyltransferase (Homo sapiens) (UniProt P21980)
# Sequence (P21980 whole entry): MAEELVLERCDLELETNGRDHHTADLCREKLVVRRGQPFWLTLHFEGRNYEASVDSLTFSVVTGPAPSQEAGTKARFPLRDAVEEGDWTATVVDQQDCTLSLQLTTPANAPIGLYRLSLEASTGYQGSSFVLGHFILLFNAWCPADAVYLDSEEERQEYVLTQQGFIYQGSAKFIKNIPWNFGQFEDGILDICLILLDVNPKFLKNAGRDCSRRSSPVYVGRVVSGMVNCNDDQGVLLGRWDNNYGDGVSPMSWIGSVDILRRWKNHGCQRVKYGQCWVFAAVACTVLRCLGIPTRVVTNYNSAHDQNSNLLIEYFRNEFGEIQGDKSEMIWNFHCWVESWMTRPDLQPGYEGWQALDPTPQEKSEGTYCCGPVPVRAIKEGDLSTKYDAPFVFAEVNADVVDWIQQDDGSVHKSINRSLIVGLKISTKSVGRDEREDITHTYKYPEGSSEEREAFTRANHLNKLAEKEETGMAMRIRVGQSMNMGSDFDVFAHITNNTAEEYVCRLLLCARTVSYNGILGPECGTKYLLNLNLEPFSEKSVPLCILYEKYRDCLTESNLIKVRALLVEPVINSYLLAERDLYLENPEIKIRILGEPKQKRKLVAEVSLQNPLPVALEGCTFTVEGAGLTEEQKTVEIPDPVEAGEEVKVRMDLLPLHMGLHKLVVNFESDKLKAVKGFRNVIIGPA
# measurement_description: Irreversible inhibition of recombinant human TG2 expressed in Escherichia coli BL21 assessed as Kinact using AL5 as substrate by continuous chromogenic assay
observed_property: Kinact (min⁻¹)

| sample_smiles | subject_of_test | reading_unit | Kinact |
| --- | --- | --- | --- |
| C=CC(=O)NCCCC[C@H](NC(=O)OCc1ccccc1)C(=O)N1CCN(C(=O)[C@H](CC(C)C)NC(=O)c2cccc3ccccc23)CC1 | Protein-glutamine gamma-glutamyltransferase (Homo sapiens) (UniProt P21980) | min⁻¹ | 3.1 |
| C=CC(=O)NCCCC[C@H](NC(=O)Cc1ccccc1F)C(=O)N1CCN(C(=O)[C@H](C)NC(=O)c2cccc3ccccc23)CC1 | Protein-glutamine gamma-glutamyltransferase (Homo sapiens) (UniProt P21980) | min⁻¹ | 1.68 |
| C=CC(=O)NCCCC[C@H](NC(=O)Cc1ccccc1Cl)C(=O)N1CCN(C(=O)[C@H](Cc2ccccc2)NC(=O)c2cccc3ccccc23)CC1 | Protein-glutamine gamma-glutamyltransferase (Homo sapiens) (UniProt P21980) | min⁻¹ | 0.25 |
| C=CC(=O)NCCCC[C@H](NC(=O)OCc1ccccc1)C(=O)N[C@@H](C(=O)N1CCN(C(=O)c2cccc3ccccc23)CC1)C(C)C | Protein-glutamine gamma-glutamyltransferase (Homo sapiens) (UniProt P21980) | min⁻¹ | 0.22 |
| C=CC(=O)NCCCC[C@H](NC(=O)Cc1ccccc1Br)C(=O)N1CCN(C(=O)[C@H](Cc2ccccc2)NC(=O)c2cccc3ccccc23)CC1 | Protein-glutamine gamma-glutamyltransferase (Homo sapiens) (UniProt P21980) | min⁻¹ | 0.24 |

a. C=CC(=O)NCCCC[C@H](NC(=O)Cc1ccccc1Br)C(=O)N1CCN(C(=O)[C@H](C)NC(=O)c2cccc3ccccc23)CC1
b. C=CC(=O)NCCCC[C@H](NC(=O)OCc1ccccc1)C(=O)N[C@H](C(=O)N1CCN(C(=O)c2cccc3ccccc23)CC1)C(C)C
c. C=CC(=O)NCCCC[C@H](NC(=O)OCc1ccccc1)C(=O)N1CCN(C(=O)[C@@H](CC(C)C)NC(=O)c2cccc3ccccc23)CC1
d. C=CC(=O)NCCCC[C@H](NC(=O)Cc1ccccc1C)C(=O)N1CCN(C(=O)[C@H](C)NC(=O)c2cccc3ccccc23)CC1
Exam item: list the entries in increasing order of Kinact. Rank the items, then write their labels in that order.
b, c, a, d

###

# subject_of_test: Protein-glutamine gamma-glutamyltransferase (Homo sapiens) (UniProt P21980)
# measurement_description: Irreversible inhibition of recombinant human TG2 expressed in Escherichia coli BL21 assessed as ratio of Kinact/Ki using AL5 as substrate by continuous chromogenic assay
observed_property: Ratio

| sample_smiles | Ratio |
| --- | --- |
| C=CC(=O)NCCCC[C@H](NC(=O)OCc1ccccc1)C(=O)N1CCN(C(=O)[C@@H](NC(=O)c2cccc3ccccc23)C(C)C)CC1 | 272 10^3/M/min |

Look up Ratio for this compound: C=CC(=O)NCCCC[C@H](NC(=O)Cc1ccccc1C)C(=O)N1CCN(C(=O)[C@H](Cc2ccccc2)NC(=O)c2cccc3ccccc23)CC1
171 10^3/M/min

Looking for the measured Ratio of C=CC(=O)NCCCC[C@H](NC(=O)Cc1ccc(F)cc1F)C(=O)N1CCN(C(=O)[C@H](C)NC(=O)c2cccc3ccccc23)CC1 , can you help?
225 10^3/M/min

I have this compound here, C=CC(=O)NCCCC[C@H](NC(=O)OCc1ccccc1)C(=O)N[C@H](C(=O)N1CCN(C(=O)c2cccc3ccccc23)CC1)C(C)C , and I need its recorded Ratio.
56 10^3/M/min

Requested field: Ratio. Item: C=CC(=O)NCCCC[C@H](NC(=O)Cc1ccccc1Cl)C(=O)N1CCN(C(=O)[C@H](C)NC(=O)c2cccc3ccccc23)CC1
211 10^3/M/min
